assay: Cmax in CD-1 mouse brain at 10 mg/kg, po administered as single dose by LC-MS/MS analysis; type: ADME, organism-based; parameters: dose 10 mg/kg, route oral
reported endpoint: Cmax (ng/g)
Field format: number, assumed ng/g, no unit text.

Q) Name the recorded Cmax for CC1=Nc2c(F)cc(-c3nc(Nc4ccc(C5CCN(C)CC5)cn4)ncc3F)cc2C12CCCC2 .
A) 2580

---

test: Dissociation constant, pKa of the compound at pH 3 to 11 by pH metric method; format: physicochemical
reported endpoint: pKa
Just the number.

Q) Name the recorded pKa for CC1=Nc2c(F)cc(-c3nc(Nc4ccc(C5CCN(C)CC5)cn4)ncc3F)cc2C12CCCC2 .
A) 8.19

---

assay: AUC (0 to infinity) in ICR mouse at 5 mg/kg, po administered as single dose by LC-MS/MS analysis; type: ADME, organism-based; parameters: dose 5 mg/kg, route oral, time infinity; details: in vivo
reported endpoint: AUC(0-inf) (ng·h/mL)
Field format: number, assumed ng·h/mL, no unit text.

Q) Name the recorded AUC(0-inf) for CC1=Nc2c(F)cc(-c3nc(Nc4ccc(C5CCN(C)CC5)cn4)ncc3F)cc2C12CCCC2 [CROZBACICLIB] .
A) 2500

---

assay: Cmax in CD-1 mouse plasma at 10 mg/kg, po administered as single dose by LC-MS/MS analysis; type: ADME, organism-based; design: dose 10 mg/kg, route oral
reported endpoint: Cmax (ng/mL)
Field format: number, assumed ng/mL, no unit text.

Q) Name the recorded Cmax for CC1=Nc2c(F)cc(-c3nc(Nc4ccc(C5CCN(C)CC5)cn4)ncc3F)cc2C12CCCC2 [CROZBACICLIB] .
A) 818

---

assay: Clearance in Sprague-Dawley rat at 2 mg/kg, iv administered as single dose by LC-MS/MS analysis; type: ADME, organism-based; conditions: in vivo
reported endpoint: log10 of clearance (log10 of the value in mL/min/kg)
Annotation: log10 of clearance, mL/min/kg basis.

Q) Name the recorded log10 of clearance for CCC1(CC)C(C)=Nc2c(F)cc(-c3nc(Nc4ccc(N5CCN(C)CC5)cn4)ncc3F)cc21 .
A) 2.22

Q) Name the recorded log10 of clearance for CC1=Nc2ccc(-c3nc(Nc4ccc(N5CCN(C)CC5)cn4)ncc3F)cc2C12CCCC2 .
A) 1.86

---

target: CDK1/Cyclin A (Homo sapiens); experiment: Inhibition of CDK1/Cyclin-A2 (unknown origin) using histone-H1 as substrate after 90 mins by ADP-Glo assay
Sequence (P06493 whole entry): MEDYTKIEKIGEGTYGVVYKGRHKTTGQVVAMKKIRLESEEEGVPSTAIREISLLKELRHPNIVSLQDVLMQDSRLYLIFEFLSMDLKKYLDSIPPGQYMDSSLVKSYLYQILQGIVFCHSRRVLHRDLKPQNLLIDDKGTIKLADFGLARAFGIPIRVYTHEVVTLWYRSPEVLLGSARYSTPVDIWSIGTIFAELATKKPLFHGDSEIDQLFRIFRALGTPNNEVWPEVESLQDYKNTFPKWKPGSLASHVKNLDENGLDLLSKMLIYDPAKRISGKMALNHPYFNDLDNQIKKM
Sequence (P20248 whole entry, further chain): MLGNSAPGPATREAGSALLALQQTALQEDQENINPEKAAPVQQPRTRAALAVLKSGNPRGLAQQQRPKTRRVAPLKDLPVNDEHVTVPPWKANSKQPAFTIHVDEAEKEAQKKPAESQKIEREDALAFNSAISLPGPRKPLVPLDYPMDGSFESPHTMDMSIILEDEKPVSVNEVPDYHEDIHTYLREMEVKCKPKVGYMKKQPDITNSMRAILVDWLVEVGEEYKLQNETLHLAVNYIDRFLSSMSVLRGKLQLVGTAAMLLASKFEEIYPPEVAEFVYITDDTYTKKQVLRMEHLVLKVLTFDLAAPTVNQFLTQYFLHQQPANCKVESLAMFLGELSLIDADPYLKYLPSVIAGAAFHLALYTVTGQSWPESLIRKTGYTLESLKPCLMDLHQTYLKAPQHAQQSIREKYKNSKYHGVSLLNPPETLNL
Please assign NOT MET whenever IC50 is at or above 100 nM, and MET whenever it is below.

compound: CC1=Nc2c(F)cc(-c3nc(Nc4ccc(N5CCN(C(C)C)CC5)cn4)ncc3F)cc2C12CCCC2
answer label: NOT MET
--
compound: CCN1CCN(Cc2ccc(Nc3ncc(F)c(-c4cc(F)c5c(c4)C(C)(CC)C(C)=N5)n3)nc2)CC1 (stereo unspecified)
answer label: NOT MET
--
compound: CCN1CCC(c2ccc(Nc3ncc(F)c(-c4ccc5c(c4)C(C)(CC)C(C)=N5)n3)nc2)CC1 (stereo unspecified)
answer label: NOT MET
--
compound: CCC1(C)C(C)=Nc2ccc(-c3nc(Nc4ccc(C5CCNCC5)cn4)ncc3F)cc21 (stereo unspecified)
answer label: NOT MET

Q) Criterion: IC50 strictly below 100 nM. Is it met by CCC1(C)C(C)=Nc2ccc(-c3nc(Nc4ccc(C5CCN(C)CC5)cn4)ncc3F)cc21 (stereo unspecified) ?
A) MET

Q) Criterion: IC50 strictly below 100 nM. Is it met by CCN1CCN(c2ccc(Nc3ncc(F)c(-c4cc(F)c5c(c4)C(C)(CC)C(C)=N5)n3)nc2)CC1 (stereo unspecified) ?
A) MET

Q) Criterion: IC50 strictly below 100 nM. Is it met by CCN1CCC(c2ccc(Nc3ncc(F)c(-c4cc(F)c5c(c4)C(C)(CC)C(C)=N5)n3)nc2)CC1 (stereo unspecified) ?
A) NOT MET

Q) Criterion: IC50 strictly below 100 nM. Is it met by CCC1(C)C(C)=Nc2c(F)cc(-c3nc(Nc4ccc(N5CCN(C)CC5)cn4)ncc3F)cc21 (stereo unspecified) ?
A) NOT MET

Q) Criterion: IC50 strictly below 100 nM. Is it met by CCC1(C)C(C)=Nc2ccc(-c3nc(Nc4ccc(N5CCN(C)CC5)cn4)ncc3F)cc21 (stereo unspecified) ?
A) NOT MET

Q) Criterion: IC50 strictly below 100 nM. Is it met by CCC1(C)C(C)=Nc2c(F)cc(-c3nc(Nc4ccc(N5CCNCC5)cn4)ncc3F)cc21 (stereo unspecified) ?
A) MET

Q) Criterion: IC50 strictly below 100 nM. Is it met by CC1=Nc2c(F)cc(-c3nc(Nc4ccc(N5CCNCC5)cn4)ncc3F)cc2C1(C)C ?
A) NOT MET
